Tested on: biotinyl-Trp-oxazolone
test-details: self-aminoacylation, catalytic enhancement (BWO) (fold over background); higher = more active; k-Seq, kA / k0A0; sequences stand for … in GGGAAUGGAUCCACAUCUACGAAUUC…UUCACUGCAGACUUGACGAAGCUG
This sample holds only a part of the variants without activity.
Outcome: condition met for self-aminoacylation of at least 4; condition not met for anything lower.

residue_sequence="AGGUUUGCUAAUAGACGCAAG [Fam3.1 aminoacylation ribozyme variant]" cat="condition not met"
residue_sequence="AUUCGCCUAGGUCCUCGGGUG [Fam2.2 aminoacylation ribozyme variant]" cat="condition met"
residue_sequence="CUAAUGCAAACAAUCGGUCUG [Fam1A.1 aminoacylation ribozyme variant]" cat="condition not met"
residue_sequence="AAGUUUGCUGCUAGUCGCAAG [Fam3.1 aminoacylation ribozyme variant]" cat="condition not met"
residue_sequence="AUUACCCUGGUCCUCUAGUGA [Fam2.1 aminoacylation ribozyme variant]" cat="condition met"
residue_sequence="AUUACCCUCGUCAUCGGGUGA [Fam2.1 aminoacylation ribozyme variant]" cat="condition not met"
residue_sequence="AUUUCCCUGGUCAUGGAGUGA [Fam2.1 aminoacylation ribozyme variant]" cat="condition met"
residue_sequence="AUUCACCCAGGUCAUCUGGUG [Fam2.2 aminoacylation ribozyme variant]" cat="condition not met"
residue_sequence="AUUCACCUAGGGCGUCGGGUG [Fam2.2 aminoacylation ribozyme variant]" cat="condition not met"
residue_sequence="CUACUUGAAACAAUCGGUUUG [Fam1A.1 aminoacylation ribozyme variant]" cat="condition not met"
residue_sequence="AUUCACCUAGGUAAUCGGGUA [Fam2.2 aminoacylation ribozyme variant]" cat="condition not met"
residue_sequence="UUACUUCAAACAAUCGGUCUG [Fam1A.1 aminoacylation ribozyme variant]" cat="condition met"
residue_sequence="AAGUUCUCUAAUAGUCGCAAG [Fam3.1 aminoacylation ribozyme variant]" cat="condition not met"
residue_sequence="AUUACCCUGGUGAUUGAGUGA [Fam2.1 aminoacylation ribozyme variant]" cat="condition met"
residue_sequence="CCACACUUCAAGCACUCGGCC [Fam1B.1 aminoacylation ribozyme variant]" cat="condition met"
residue_sequence="AUUCACCUAGGUCAUCGUAUG [Fam2.2 aminoacylation ribozyme variant]" cat="condition not met"
residue_sequence="CCACACUUAAACCAAUCGGUC [Fam1B.1 aminoacylation ribozyme variant]" cat="condition not met"
residue_sequence="AUACUUCAAGCAAUCGGUCUG [Fam1A.1 aminoacylation ribozyme variant]" cat="condition not met"
residue_sequence="AUUACCCUGGUCAUCAAGCGA [Fam2.1 aminoacylation ribozyme variant]" cat="condition not met"
residue_sequence="AUUCUCCUAGCUCAUCGGGUG [Fam2.2 aminoacylation ribozyme variant]" cat="condition met"
residue_sequence="CUACUUCAAACAAUCGUUCCG [Fam1A.1 aminoacylation ribozyme variant]" cat="condition not met"
residue_sequence="AUUACCCUGGUUGUCGAGUGA [Fam2.1 aminoacylation ribozyme variant]" cat="condition not met"
residue_sequence="AAUCACCUAGGUCAUCAGGUG [Fam2.2 aminoacylation ribozyme variant]" cat="condition not met"
residue_sequence="AAGUGUGCUAAGAGUCGCAAG [Fam3.1 aminoacylation ribozyme variant]" cat="condition not met"
residue_sequence="AUUACCAUGGUCAUCAAGUGA [Fam2.1 aminoacylation ribozyme variant]" cat="condition met"
residue_sequence="UUUACGCUGGUCAUCGAGUGA [Fam2.1 aminoacylation ribozyme variant]" cat="condition met"
residue_sequence="AAUACCCUGGUUAUCGAGUGA [Fam2.1 aminoacylation ribozyme variant]" cat="condition met"
